Experiment: aqueous solubility
Assay type: physicochemical
Settings: water; depending on crystalline form

Smiles Notation	solubility
CC1=C(C(=O)N2CCC[C@H]2c2ccc(F)cc2)[C@@H](c2ccc(Cl)c(Cl)c2)n2nccc2N1	2 to 4 µg/mL
